Where do the numbers come from? From paper PMC8276771.

molecular target: human P2Y6R (Homo sapiens, UniProt Q15077); test: Calcium mobilization
Sequence (Q15077 whole entry): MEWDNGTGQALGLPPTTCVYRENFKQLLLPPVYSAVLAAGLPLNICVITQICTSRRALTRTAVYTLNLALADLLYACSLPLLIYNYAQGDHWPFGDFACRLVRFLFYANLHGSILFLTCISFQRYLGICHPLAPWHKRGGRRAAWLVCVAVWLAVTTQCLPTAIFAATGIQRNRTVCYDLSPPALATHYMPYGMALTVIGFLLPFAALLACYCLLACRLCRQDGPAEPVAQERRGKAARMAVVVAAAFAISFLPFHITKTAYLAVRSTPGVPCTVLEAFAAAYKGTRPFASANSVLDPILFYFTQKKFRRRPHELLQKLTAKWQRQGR
MEASURED ATTRIBUTE: EC50 (nM)
One number for each entry, in nM.

*Q* Which EC50 is reported for this molecule? `O=c1[nH]/c(=N\OCc2ccc(S(F)(F)(F)(F)F)cc2)ccn1[C@@H]1O[C@H](COP(=O)(O)CP(=O)(O)O)[C@@H](O)[C@H]1O`
*A* 1690
